- System: rodent lifetime carcinogenesis bioassay, tumor incidence TD50
- PROTOCOL NOTES: carcinogenic potency in animals, long-term in vivo studies, CPDB compilation (AID 1745844)
- MEASUREMENT CONTEXT: mouse; strain B6C3F1; males; in feed; site: kidney; lesion: tubular carcinoma; dosed 103 weeks; study length 103 weeks
OBSERVED PROPERTY: TD50 (mg/kg/day)
One number for each entry, in mg/kg/day.

Record COP(=O)(OC)OC(=CCl)c1cc(Cl)c(Cl)cc1Cl . Reported TD50: 5260

###

- Tested on: rodent lifetime carcinogenesis bioassay, tumor incidence TD50
- PROTOCOL NOTES: carcinogenic potency in animals, long-term in vivo studies, CPDB compilation (AID 1745844)
- MEASUREMENT CONTEXT: rat; strain Fischer 344; males; by gavage; site: stomach; lesion: squamous-cell papilloma; dosed 98 weeks; study length 104 weeks
OBSERVED PROPERTY: TD50

The measured TD50 associated with c1cc(OCC2CO2)cc(OCC2CO2)c1 (stereo unspecified) reads 24.7 mg/kg/day
